- System: HL-60
- TEST SUMMARY: Cytotoxicity against human HL60 cells assessed as reduction in cell viability measured after 48 hrs by CCK8 assay
- Assay type: functional, cell-based
- CONDITION SET: HL-60, 48 h
MEASURED METRIC: pIC50
Scale: pIC50 equals -log10([C]), with [C] in mol/L.

Hi! What's the reported pIC50 for O=c1[nH]cc(F)c(=O)[nH]1 [FLUOROURACIL] on HL-60?
4.37

* * *

- Tested on: HL-60
- TEST SUMMARY: Cytotoxicity against human HL60 cells assessed as reduction in cell viability measured after 48 hrs by CCK8 assay
- Type: functional, cell-based
- CONDITION SET: HL-60, 48 h, read-out: IC50
Record form. Attribute: pIC50. Fill in for each entry.
A value of pIC50 is the negative decimal logarithm of a concentration given in moles per litre.

Value lookup for pIC50; key = CC1=CC(=O)c2[nH]c3ccc(C(F)(F)F)cc3c2C1=O
6.23

Return reported pIC50; argument: COc1ccc2[nH]c3c(c2c1)C(=O)C(C)=CC3=O
5.51

Query (compound): CC1=CC(=O)c2[nH]c3ccc(Cl)cc3c2C1=O ; field requested: pIC50
6.62

Can you look up the measured pIC50 of COc1ccc2[nH]c3c(c2c1)C(=O)C=C(C)C3=O for me?
5.30

I would be grateful if you could share the reported pIC50 for CC1=CC(=O)c2[nH]c3ccccc3c2C1=O [MURRAYAQUINONE A] .
6.14

Given the entry COc1ccc2c3c([nH]c2c1)C(=O)C=C(C)C3=O , report its measured pIC50.
5.92

I have this compound here, COc1cc2[nH]c3c(c2cc1OC)C(=O)C(C)=CC3=O , and I need its recorded pIC50.
6.26

Quick check: pIC50 of CC1=CC(=O)c2c([nH]c3ccccc23)C1=O ?
6.54

Given the compound O=C1c2ccccc2C(=O)c2c1oc1ccccc21 , what is its reported pIC50?
6.39
